Hey, just so you know, these numbers are from paper PMC8360061.

Biological target: PfIspE (Plasmodium falciparum, UniProt Q8I470)
Sequence (Q8I470 entry or part of it): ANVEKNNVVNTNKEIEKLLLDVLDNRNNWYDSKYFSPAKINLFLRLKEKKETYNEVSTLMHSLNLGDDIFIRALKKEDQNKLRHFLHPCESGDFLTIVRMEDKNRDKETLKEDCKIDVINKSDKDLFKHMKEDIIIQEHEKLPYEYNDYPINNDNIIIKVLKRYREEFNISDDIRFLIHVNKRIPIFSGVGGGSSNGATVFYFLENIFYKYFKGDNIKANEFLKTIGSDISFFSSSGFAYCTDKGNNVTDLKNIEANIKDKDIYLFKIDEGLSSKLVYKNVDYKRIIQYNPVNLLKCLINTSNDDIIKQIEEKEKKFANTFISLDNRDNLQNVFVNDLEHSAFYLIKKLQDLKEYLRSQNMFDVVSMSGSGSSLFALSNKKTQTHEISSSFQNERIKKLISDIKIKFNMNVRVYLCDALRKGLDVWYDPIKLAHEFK
Test: PfIspE enzymatic assay (coupled to PK/LDH, NADH oxidation at 340 nm)
Type: biochemical
Conditions: 10 mM stock in DMSO at RT, 9 days of incubation
Recorded endpoint: IC50
Value and unit, in that order.

What value of IC50 has been reported for the following compound? `CCn1c(C)cc(-c2csc(Nc3ccccc3C(F)(F)F)n2)c1C`
10 µM

* * *

Molecular target: UniProtKB Q8I470
Assay: PfIspE enzymatic assay (coupled to PK/LDH, NADH oxidation at 340 nm)
Assay type: biochemical
Conditions: 10 mM stock in MeOH at RT, 16 days of incubation
Recorded endpoint: IC50

Value lookup for IC50; key = `CCn1c(C)cc(-c2csc(Nc3ccccc3C(F)(F)F)n2)c1C`
> 500 µM
